SYSTEM_NAME: Beta-lactamase (Escherichia coli, UniProt Q2V0Y6)
Sequence (Q2V0Y6 whole entry): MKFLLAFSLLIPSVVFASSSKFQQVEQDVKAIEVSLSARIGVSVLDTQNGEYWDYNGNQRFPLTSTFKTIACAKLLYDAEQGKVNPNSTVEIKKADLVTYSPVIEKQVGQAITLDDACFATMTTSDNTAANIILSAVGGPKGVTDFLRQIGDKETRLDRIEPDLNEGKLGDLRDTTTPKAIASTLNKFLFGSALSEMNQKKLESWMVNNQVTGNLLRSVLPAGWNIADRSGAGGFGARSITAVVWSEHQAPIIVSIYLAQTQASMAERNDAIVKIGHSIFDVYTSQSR
METHOD_NOTES: Concentration required for its inhibitory activity against Escherichia coli K12(PSE4) class A beta-lactamase
Parameter IC50: see the listing below.
REPORTED_ENDPOINT: IC50

CCCCCCCCc1cccc(O)c1C(=O)O :: 63.9 µM
CCCCCCCCCCCCCCCCCc1cccc(O)c1C(=O)O :: 1.85 µM
CCCCCCCCCCCCCCCc1cccc(O)c1 :: 65.6 µM
CCCCCCCCCCc1cccc(O)c1 :: 17.4 µM
CCCCCCCCCCCCCCCc1cccc(OC)c1C(=O)O :: 1.65 µM
C=CC/C=C\C/C=C\CCCCCCCc1cccc(O)c1C(=O)O :: 3.21 µM
CC/C=C\C/C=C\C/C=C\CCCCCCCc1cccc(O)c1C(=O)O :: 26.9 µM

* * *

Here the recorded IC50 is given for each entry.
SYSTEM_NAME: Beta-lactamase (Proteus mirabilis)
Sequence (P30897 whole entry): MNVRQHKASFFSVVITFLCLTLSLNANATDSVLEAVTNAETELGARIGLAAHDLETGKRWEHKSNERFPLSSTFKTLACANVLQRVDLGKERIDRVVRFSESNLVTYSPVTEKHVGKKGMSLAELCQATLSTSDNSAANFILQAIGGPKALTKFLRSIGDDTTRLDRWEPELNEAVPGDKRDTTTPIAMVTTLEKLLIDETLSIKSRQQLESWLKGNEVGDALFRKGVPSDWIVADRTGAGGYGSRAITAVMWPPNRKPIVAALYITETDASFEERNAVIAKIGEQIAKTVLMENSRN
METHOD_NOTES: Concentration required for its inhibitory activity against Proteus mirabilis C889 class A beta-lactamase
REPORTED_ENDPOINT: IC50 (µM)

C=CC/C=C\C/C=C\CCCCCCCc1cccc(O)c1C(=O)O :: 90.5
CCCCCCCCc1cccc(O)c1C(=O)O :: 15.5
CCCCCCCCCCCCCCCCCc1cccc(O)c1C(=O)O :: 22
CCCCCCCCCCCCCCCc1cccc(OC)c1C(=O)O :: 60.6

* * *

Below is a list of entries, each paired with its recorded IC50 value.
SYSTEM_NAME: Beta-lactamase (Enterobacter cloacae)
Sequence (P05364 whole entry): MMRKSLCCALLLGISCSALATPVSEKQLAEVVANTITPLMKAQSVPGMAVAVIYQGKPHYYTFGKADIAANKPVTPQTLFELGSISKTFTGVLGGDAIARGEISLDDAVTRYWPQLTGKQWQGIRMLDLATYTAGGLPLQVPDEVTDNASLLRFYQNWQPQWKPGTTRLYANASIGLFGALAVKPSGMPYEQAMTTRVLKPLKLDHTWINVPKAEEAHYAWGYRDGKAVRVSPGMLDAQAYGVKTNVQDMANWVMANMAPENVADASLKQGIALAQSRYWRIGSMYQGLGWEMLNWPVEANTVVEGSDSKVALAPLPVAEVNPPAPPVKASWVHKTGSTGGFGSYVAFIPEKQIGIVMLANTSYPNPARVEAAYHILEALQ
METHOD_NOTES: Concentration required for its inhibitory activity against Enterobacter cloacae P99 class C beta-lactamase
REPORTED_ENDPOINT: IC50 (µM)

CCCCCCCCCCCCCCCc1cccc(O)c1O :: 90.4
CCCCCCCCCCc1cccc(O)c1 :: 19.1
C=CC/C=C\C/C=C\CCCCCCCc1cccc(O)c1C(=O)O :: 4.08
CCCCCCCCCCc1cccc(O)c1O :: 83.8
CCC(C)CCCCCCCCCCCCc1cccc(O)c1C(=O)O (configuration not stated) :: 85.5
CC(C)CCCCCCCCCCCCCc1cccc(O)c1C(=O)O :: 24.8
CCCCCCCCCCCCCCCc1cccc(OC)c1C(=O)O :: 6.89

* * *

SYSTEM_NAME: Beta-lactamase (Pseudomonas aeruginosa (strain ATCC 15692 / DSM 22644 / CIP 104116 / JCM 14847 / LMG 12228 / 1C / PRS 101 / PAO1))
Sequence (P24735 whole entry): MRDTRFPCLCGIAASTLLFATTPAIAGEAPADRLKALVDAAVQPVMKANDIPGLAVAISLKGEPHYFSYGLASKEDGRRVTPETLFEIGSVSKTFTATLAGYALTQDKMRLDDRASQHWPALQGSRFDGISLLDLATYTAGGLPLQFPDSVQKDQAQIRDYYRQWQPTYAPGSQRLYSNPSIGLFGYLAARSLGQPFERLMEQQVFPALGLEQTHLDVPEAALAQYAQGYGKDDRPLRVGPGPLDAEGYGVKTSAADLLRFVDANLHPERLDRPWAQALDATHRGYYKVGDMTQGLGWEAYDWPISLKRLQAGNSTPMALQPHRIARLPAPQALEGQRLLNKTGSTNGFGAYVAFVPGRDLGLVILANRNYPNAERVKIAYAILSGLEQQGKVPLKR
METHOD_NOTES: Concentration required for its inhibitory activity against Pseudomonas aeruginosa class C beta-lactamase
Each record is given condition met if its reported IC50 is strictly below 40 µM. Records at or above 40 µM are given condition not met.

C=CC/C=C\C/C=C\CCCCCCCc1cccc(O)c1C(=O)O :: condition met
CCCCCCCCCCCCCCCCCc1cccc(O)c1C(=O)O :: condition met
CCC(C)CCCCCCCCCCCCc1cccc(O)c1C(=O)O (stereo not given) :: condition not met
CCCCCCCCCCCCCCCc1cccc(OC)c1C(=O)O :: condition met
CC(C)CCCCCCCCCCCCCc1cccc(O)c1C(=O)O :: condition not met

* * *

IC50 values by entry
SYSTEM_NAME: Beta-lactamase TEM (Escherichia coli)
Sequence (P62593 whole entry): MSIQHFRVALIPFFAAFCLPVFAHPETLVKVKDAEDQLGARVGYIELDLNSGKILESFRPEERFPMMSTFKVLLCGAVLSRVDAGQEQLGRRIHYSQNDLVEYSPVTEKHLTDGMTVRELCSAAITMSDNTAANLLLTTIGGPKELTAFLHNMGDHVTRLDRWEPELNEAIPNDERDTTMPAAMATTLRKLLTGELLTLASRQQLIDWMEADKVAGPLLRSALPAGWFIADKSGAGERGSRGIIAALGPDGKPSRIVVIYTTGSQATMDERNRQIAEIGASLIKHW
METHOD_NOTES: Concentration required for its inhibitory activity against Escherichia coli JT4(TEM1) class A beta-lactamase
REPORTED_ENDPOINT: IC50 (µM)

CCCCCCCCCCc1cccc(O)c1 :: 8.1
CCC(C)CCCCCCCCCCCCc1cccc(O)c1C(=O)O (centres undefined) :: 27.5
CCCCCCCCCCc1cccc(O)c1C(=O)O :: 43.1
CCCCCCCCCCCCCCCCCc1cccc(O)c1C(=O)O :: 5.04
